B1: tRNA (parent)
chain: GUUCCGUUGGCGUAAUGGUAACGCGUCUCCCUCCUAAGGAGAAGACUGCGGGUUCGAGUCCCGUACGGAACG

Variants of: B1
assay-details: yeast fitness, log relative to wild type (ln ratio); higher = fitter; tRNA-Arg(CCU), competitive growth, 37 C, 1 M NaCl
Provide the reported yeast fitness (ln) of each item.
One number for each entry.

Here is how some variants turned out for yeast fitness (ln).
GCUCCAUUGGCGUAAUGGUAACGCGUCUCCCUCCUAAGGAGAAGAUUGCGGGUUCGAGUCCCGUAUGGGGUG [U2C G6A C46U C66U A69G A70G C71U]
-0.00401
GCUCCAUUGGCGUAAUGGUAACGCGUUUCCCUCCUAAGGAGAAGACUGCGGGUUCGAGUCCCGUACGGGUUG [U2C G6A C27U A69G A70U C71U]
-0.309

Could you tell me yeast fitness (ln) for each of these variants? They are listed below.
1. GGUCCUUUGGCGUAAUGGUAACGCGUUUCCCUCCUAAGGAGAAGACUGCGGGUUCGAGUCCCGUAUGGAACG [U2G G6U C27U C66U]
2. GGUCCGUUGGCGUAAUGGUAACGCGUUUCCCUCCUAAGGAGAAGAUUGCGGGUUCGAGUCCCGUACGGAUUG [U2G C27U C46U A70U C71U]
3. GCUCCGUUGGCGUAAUGGUAACGCGUUUCCCUCCUAAGGAGACGAUUGCGGGUUCGAGUCCCGUACGGAUCG [U2C C27U A43C C46U A70U]
4. GGUCCAUUGGCGUAAUGGUAACGCGUCUCCCUCCUAAGGAGACGACUGCGGGUUCGAGUCCCGUAAGGAUCG [U2G G6A A43C C66A A70U]

-0.233
-0.0474
-0.14
-0.12

Could you tell me yeast fitness (ln) for each of these variants? They are listed below.
1. GCUCCAUUGGCGUAAUGGUAACGCGUCUCCCUCCUAAGGAGAAGAUUGCGGGUUCGAGUCCCGUAAGGAUUG [U2C G6A C46U C66A A70U C71U]
2. ACUCCGUUGGCGUAAUGGUAACGCGUUUCCCUCCUAAGGAGACGACUGCGGGUUCGAGUCCCGUACGGGAUG [G1A U2C C27U A43C A69G C71U]
3. AUUCCGUUGGCGUAAUGGUAACGCGUCUCCCUCCUAAGGAGACGAUUGCGGGUUCGAGUCCCGUAAGGAUCG [G1A A43C C46U C66A A70U]

[-0.0695, -0.173, -0.082]
